Value source: PubChem BioAssay (Tox21)

Assay: qHTS assay to identify small molecule agonists of the constitutive androstane receptor (CAR) signaling pathway - cell viability counter screen (AID 1224836); further: nearly all actives have a fitted effect of over 45% in size
Details: HepG2-CYP2B6-hCAR viability, CellTiter-Fluor, 23 h, PK11195 added to every well; series mostly up to 92.4 µM
Records with an inconclusive call do not appear. Calls of active or inactive are those of the source. The call rests on the fitted dose curve; in most records, active means well fitted cell-killing curve with a large enough effect in the repeat runs; inconclusive means weak or mixed curves, or effect the other way; inactive means flat fitted curve, though single readings scatter.
Assign a class; possible classes are active, inactive

CC[C@H]1OC(=O)[C@H](C)[C@@H](O[C@H]2C[C@@](C)(OC)[C@@H](O)[C@H](C)O2)[C@H](C)[C@@H](O[C@@H]2O[C@H](C)C[C@H](N(C)C)[C@H]2O)[C@](C)(O)C[C@@H](C)/C(=N\OCOCCOC)[C@H](C)[C@@H](O)[C@]1(C)O    active
CC1C(C)(C)C2=C(C(=O)CCC2)C1(C)C (configuration not stated)    inactive
CC[C@@H](CO)NCCN[C@@H](CC)CO    inactive
O=C1OC[C@H](Cc2cccc(O)c2)[C@H]1Cc1cccc(O)c1    inactive
Nc1ccc(F)cc1    inactive
COc1ccc2nc(S(=O)Cc3ncc(C)c(OC)c3C)[nH]c2c1 (configuration not stated)    inactive
COC(=O)Nc1nc2ccc(C(=O)C3CC3)cc2[nH]1    inactive
C=C(C)C(=O)OCCC(F)(F)C(F)(F)C(F)(F)C(F)(F)C(F)(F)C(F)(F)F    inactive
CCCCCCCCCCCCCCCCCC(=O)OCC(CC)CCCC (configuration not stated)    inactive
CCCCC(CC)COS(=O)(=O)O (configuration not stated)    inactive

Problem: Check the results log: what was the call for CCOC(=O)c1ccc(NC(=O)CN2CCCCC2)cc1 ?
Solution: inactive

Problem: Here is the next compound: Cc1c[nH]c2ccccc12
Solution: inactive

Problem: Here is the next compound: N[C@@H](Cc1cc(I)c(O)c(I)c1)C(=O)O
Solution: inactive

Problem: Here is the next compound: CO[C@@H]1[C@@H](OC)[C@H](C)[C@@](O)(CC(=O)O)O[C@H]1[C@H](C)[C@H]1O[C@@]2(CC[C@@](C)([C@H]3CC[C@@](C)([C@@H]4O[C@@H]([C@H]5O[C@](C)(O)[C@H](C)C[C@@H]5C)C[C@@H]4OC4C[C@H](OC)[C@@H](OC)[C@H](C)O4)O3)O2)C[C@H](O)[C@H]1C (some centres not stated)
Solution: active

Problem: Here is the next compound: CCN(CC)CCOC(=O)C(c1ccccc1)c1ccccc1
Solution: inactive

====

Experiment: qHTS assay to identify small molecule agonists of H2AX - cell viability counter screen (AID 1224847);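 further: wild-type CHO-K1 cells; top concentration of the series differs between compounds; on the % scale 0 is the no-effect control and ±100 the full control effect; nearly all actives have a fitted effect of over 30% in size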
Details: CHO-K1 viability, CellTiter-Glo luminescence, 3 h; series mostly up to 154 µM
Records with an inconclusive call do not appear. The source made the active and inactive calls. The call rests on the fitted dose curve.
experimental readout: outcome

// solved cases for outcome follow
ClC1=C(Cl)C1(Cl)Cl    inactive
O=C(O)CCC(=O)c1ccc(-c2ccccc2)cc1    inactive
CCC(CO)(CO)CO    inactive
Cc1ccc2c(c1[N+](=O)[O-])C(=O)c1ccccc1C2=O    inactive
CCOC(=O)c1c(N)sc2c1CCN(Cc1ccccc1)C2    inactive

For each listed entry, give its outcome.
1. C=C(C)C(=O)OCCC(F)(F)C(F)(F)C(F)(F)C(F)(F)C(F)(F)C(F)(F)F
2. CCCCOC(=O)CCCCC(=O)OCCCC
3. CC1CCCO1 (stereo not drawn)

Solution:
inactive
inactive
inactive

====

Test: qHTS assay to test for compound auto fluorescence at 590 nm (red) in HepG2 cell free culture (AID 720684); further: on the % scale 0 is the no-effect control and ±100 the full control effect
Details: cell-free medium autofluorescence, red 540/590 nm; series mostly up to 91.3 µM
The source made the active and inactive calls. Calls come from the whole dose curve; as a rule, active = well fitted curve in the direction sought with a large enough effect in the repeat runs; inconclusive = weak or mixed curves; inactive = flat fitted curve, though single readings scatter.
experimental readout: fluorescence, % of Rose Bengal

CC(C)(C)CCCCCCOC(=O)c1ccccc1C(=O)OCCCCCCC(C)(C)C    inactive
CC/C=C\C/C=C\C/C=C\CCCCCCCC(=O)OCC    inactive
CCCCCCCCCCCCCCN(C)C    -0.054% [at 18.6 µM] (inactive)
CCSC(=O)N(CC)CC    inactive
CCCCOC(=O)CCCCC(=O)OCCCC    inactive

Would you kindly look at the next entry?
Problem: Need fluorescence, % of Rose Bengal of COc1cc(OC)c2ccc(=O)oc2c1 , thanks.
Solution: inactive

====

Target: Aryl hydrocarbon receptor (Homo sapiens)
Assay: qHTS assay to identify small molecule that activate the aryl hydrocarbon receptor (AhR) signaling pathway (AID 743085);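 further: HG2L7.5c1 human HepG2 liver cells with stably integrated DRE-driven firefly reporter; on the % scale 0 is the no-effect control and ±100 the full control effect; nearly all actives have a fitted effect of over 15% in size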
Conditions: HepG2 AhR-luc (HG2L7.5c1), luciferase, 24 h; series mostly up to 70.3 µM
Records with an inconclusive call do not appear. Activity calls are given as the source filed them. Calls come from the whole dose curve; as a rule, active = well fitted activation curve with a large enough effect in the repeat runs; inconclusive = weak or mixed curves; inactive = no such curve, though single readings can be large or run the other way.
Assign a class; possible classes are yes (1) (active), no (0) (inactive)

The following molecules have reported results that may help.
COC(=O)c1sccc1S(N)(=O)=O    no (0)
O=c1[nH]c2cc(C(F)(F)F)c(N3CCOCC3)cc2n(CP(=O)(O)O)c1=O    no (0)
CC(=O)C(=O)CC(C)C    no (0)
O=C1OC[C@H](Cc2cccc(O)c2)[C@H]1Cc1cccc(O)c1    no (0)
CCCCCc1ccco1    no (0)

Problem: Check the results log: what was the call for CCCCCCCCCCCCCCN(C)C ?
Solution: no (0)

Problem: Here is the next molecule: Cc1cccc(C)c1NC(=O)c1cc(S(N)(=O)=O)c(Cl)cc1O
Solution: no (0)

Problem: Here is the next molecule: O=C1[C@@H]2[C@H]3CC[C@H](C3)[C@@H]2C(=O)N1CCCCN1CCN(c2ncccn2)CC1
Solution: no (0)

Problem: Here is the next molecule: CC(C)(C)C1(CCc2ccc(Cl)cc2)CO1 (stereo unspecified)
Solution: no (0)

====

Assay: qHTS RealTime-Glo MT Cell Viability Assay in HEK293 cells - 32 hour (AID 1224868); further: nearly all actives have a fitted effect of over 50% in size
Settings: RealTime-Glo luminescence; series mostly up to 76.8 µM
Results filed as inconclusive are left out. Activity calls are given as the source filed them. Calls come from the whole dose curve; as a rule, active = well fitted cell-killing curve with a large enough effect in the repeat runs; inconclusive = weak or mixed curves, or effect the other way; inactive = flat fitted curve, though single readings scatter.
Assign a class; possible classes are True = active, False = inactive

The following compounds have reported results that may help.
CCN(CC)CCOc1ccccc1C(=O)CCc1ccccc1    True
Cc1ccc2c(c1)CCCN2    False
CCOC(=O)c1c(N)sc2c1CCN(Cc1ccccc1)C2    True
Oc1cccc2[nH]ccc12    False
O=c1[nH][nH]c(=O)c2cc([N+](=O)[O-])ccc12    False

Problem: Check the results log: what was the call for O=C(O)CCS ?
Solution: False

====

Test: qHTS assay to test for compound auto fluorescence at 460 nm (blue) in HEK293 cell free culture (AID 720681); further: on the % scale 0 is the no-effect control and ±100 the full control effect
Conditions: cell-free medium, autofluorescence 405/460 nm (blue); series mostly up to 91.3 µM
From the text: U.S. Tox21 Program National Center for Advancing Translational Sciences [NCATS] NIH Chemical Genomics Center [NCGC] U.S. Environmental Protection Agency [EPA] National Institutes of Environmental Health Sciences [NIEHS] National Toxicology Program [NTP] U.S. Food and Drug Administration [FDA] Tox21 Assay Overview: Compound auto fluorescence often interferes with screening of the compound library against various biological targets and signaling pathways. […] This assay includes the blue fluorescence data. […]
Calls of active or inactive are those of the source. Calls come from the whole dose curve; as a rule, active = well fitted curve in the direction sought with a large enough effect in the repeat runs; inconclusive = weak or mixed curves; inactive = flat fitted curve, though single readings scatter.
experimental readout: fluorescence, % of fluorescent control

// solved cases for fluorescence, % of fluorescent control follow
CC(CCc1ccc(O)cc1)NCCc1ccc(O)c(O)c1 (stereo not drawn)    inactive
Nc1ccn([C@H]2CS[C@@H](CO)O2)c(=O)n1    inactive
CC(C(=O)O)c1ccc(C(=O)c2cccs2)cc1 (stereo not drawn)    -0.0817% [at 18.6 µM] (inactive)
CC(C)(O)CCc1ccccc1    inactive
CSSc1ccoc1C    inactive
CCCCCCCCCCCCCCCC(=O)OCC    inactive
COc1cc(C(C)=O)ccc1OCCCN1CCC(c2noc3cc(F)ccc23)CC1    inactive

Would you kindly look at the next entry?
Problem: Need fluorescence, % of fluorescent control of CN1C(CSCC(F)(F)F)Nc2cc(Cl)c(S(N)(=O)=O)cc2S1(=O)=O (stereo not drawn) , thanks.
Solution: inactive

====

Experiment: Caspase-3/7 induction in HepG2 cells by small molecules, qHTS cell viability counter screen (AID 1346981); further: nearly all actives have a fitted effect of over 30% in size
Conditions: CellTiter-Fluor fluorescence, 17 h; series mostly up to 92.4 µM
Records with an inconclusive call do not appear. The source made the active and inactive calls. Calls follow the shape of the dose curve; as a rule, active = well fitted cell-killing curve with a large enough effect in the repeat runs; inconclusive = weak or mixed curves, or effect the other way; inactive = flat fitted curve, though single readings scatter.
Assign a class; possible classes are Y for active, N for inactive

The following compounds have reported results that may help.
COC(C)(C)OC    N
OCC(CO)n1cnc(-c2ccc(F)cc2)c1-c1ccnc(Oc2ccccc2)n1    N
CC1=C2[C@@H]([C@H](C)CC[C@H]2/C=C(\C)C(=O)O)[C@H](O)C1    N
CC1CCCO1 (stereo not given)    N
CC(CO)(CO)C(=O)O    N
CC1CCCC(=O)C1=O (stereo not given)    N
O=NN(CCCl)C(=O)NCCCl    N
CC(C)OC(=O)c1ccccc1C(=O)OC(C)C    N

Problem: Check the results log: what was the call for O=c1[nH]c2cc(C(F)(F)F)c(N3CCOCC3)cc2n(CP(=O)(O)O)c1=O ?
Solution: N

Problem: Here is the next compound: CC(C)c1ccc(C#N)cc1
Solution: N

Problem: Here is the next compound: COc1cc(NS(=O)(=O)c2ccc(N)cc2)nc(C)n1
Solution: N

Problem: Here is the next compound: C=C(C)c1ccccc1
Solution: N

Problem: Here is the next compound: CS(=O)(=O)c1ccc([C@@H](C[C@H]2CCC(=O)C2)C(=O)Nc2cnccn2)cc1Cl
Solution: N

Problem: Here is the next compound: CCc1ccc(C)cc1
Solution: N

Problem: Here is the next compound: CNc1c2c(nn1C)CCCC2
Solution: N

Problem: Here is the next compound: O=C(O)CCCc1c[nH]c2ccccc12
Solution: N

Problem: Here is the next compound: CC(C)COC(=O)COc1cc(Cl)c(Cl)cc1Cl
Solution: N

Problem: Here is the next compound: CCC(CO)(CO)CO
Solution: N

Problem: Here is the next compound: C1=CCC2CC=CC2C1 (stereo not given)
Solution: N

Problem: Here is the next compound: O=C(O)CN1C(=O)c2cccc3cccc(c23)C1=O
Solution: N

Problem: Here is the next compound: CC(=O)OCCC(C)CC(C)(C)C (stereo not given)
Solution: N

Problem: Here is the next compound: CC(=O)OCC(=O)[C@@]1(OC(C)=O)[C@@H](C)C[C@H]2[C@@H]3C[C@H](F)C4=CC(=O)C=C[C@]4(C)[C@@]3(F)[C@@H](O)C[C@@]21C
Solution: N

Problem: Here is the next compound: C[C@@H]1[C@H](O)[C@@H](C)/C=C/C=C\C=C\C=C\C=C\C=C\C=C\[C@H](O[C@@H]2O[C@H](C)[C@@H](O)[C@H](N)[C@@H]2O)C[C@@H]2O[C@](O)(C[C@@H](O)C[C@@H](O)[C@H](O)CC[C@@H](O)C[C@@H](O)CC(=O)O[C@H]1C)C[C@H](O)[C@H]2C(=O)O (stereo in doubt)
Solution: Y

Problem: Here is the next compound: CC(C)c1ccc(C(=O)N=C(N)N)cc1S(C)(=O)=O
Solution: N
